This collection of values is drawn from paper PMC9482650.

# systemTested: MAGI2_5, Q86UL8
# Sequence (Q86UL8 915-1017): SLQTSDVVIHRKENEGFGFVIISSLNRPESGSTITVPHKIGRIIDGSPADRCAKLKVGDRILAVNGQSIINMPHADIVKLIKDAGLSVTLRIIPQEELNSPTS
# method: holdup assay
# Set-up: key: below the threshold = too weak to quantify, mostly under pKd 3.1 to 4
# assaySetup: plain residues with an end cap or a label only (N-terminal biotin on a linker: ahx)
Examples of binders with documented pKd follow.
measure: pKd

>>> quantitativeresult("HSATSVHTSV [MTMR1, Q13613]")
4.02
>>> quantitativeresult("ADENEQVSAV [RAPGEF6, Q8TEU7]")
4.38
>>> quantitativeresult("PKMKLNETSF [SHKBP1, Q8TBC3]")
3.53
>>> quantitativeresult("KEYDDELTFF [USH1C, Q9Y6N9]")
3.96
>>> quantitativeresult("YNSFLSVTTV [PDZRN3, Q9UPQ7]")
3.9
>>> quantitativeresult("VNENQKEYFF [CNTNAP4, Q9C0A0]")
3.54
>>> quantitativeresult("KDECVIATEV [DLL1, O00548]")
5.32
